Exercise: for every item that follows, state its recorded pIC50.
Molecular target: human RORγt (Ligand Binding Domain) (Homo sapiens)
Construct: purchased Crelux (Planegg, Germany) batch no PC5032-1
Sequence (P51449 269-508 limits assumed): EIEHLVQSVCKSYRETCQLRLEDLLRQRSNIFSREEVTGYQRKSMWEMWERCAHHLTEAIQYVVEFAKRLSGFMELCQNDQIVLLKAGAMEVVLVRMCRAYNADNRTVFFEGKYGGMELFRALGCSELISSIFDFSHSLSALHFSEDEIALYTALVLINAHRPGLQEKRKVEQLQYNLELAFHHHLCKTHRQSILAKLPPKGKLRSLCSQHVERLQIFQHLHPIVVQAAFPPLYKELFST
Assay: Fluorescence Polarization (FP) Assay
Details: Fluorescence Polarization (FP) Assay; values given as upper bounds of activity ranges; read-out: FP activity range
pIC50: −log10 of the molar value.

Completed entries (count: 6):
1) O=S1(=O)CCC(CNc2ncnc(N3CCC[C@@H]3c3ccc(C(F)(F)F)cc3)c2F)C1 (some centres unmarked) = > 6.30
2) O=S(=O)(NC1CC1)c1ccc(CNc2ncnc(N3CCC[C@@H]3c3ccc(C(F)(F)F)cc3)c2F)cc1 = > 6.30
3) Cc1ccc(CNc2ncnc(N3CCCC3c3ccc(C(F)(F)F)cc3)c2F)o1 (centres unmarked) = > 5.00
4) Cc1ccc(C2CCCN2c2ncnc(NCc3ccc(CC(N)=O)cc3)c2F)o1 (centres unmarked) = > 6.30
5) CS(=O)(=O)CC1(CNc2ncnc(N3CCOC[C@@H]3c3ccc(C(F)(F)F)cc3)c2F)CCOCC1 = > 6.00
6) Oc1ccc(CNc2ncnc(N3CCCC3c3ccc(C(F)(F)F)cc3)c2F)cn1 (centres unmarked) = > 5.70

Hey, quick one: what's pIC50 for each of these?
1. OCCC1(CNc2ncnc(N3CCOC[C@@H]3c3ccc(C(F)(F)F)cc3)c2F)CCOCC1
2. CC(=O)N1CCC(F)(CNc2ncnc(N3CCOC[C@@H]3c3ccc(C(F)(F)F)cc3)c2F)CC1

["> 6.30", "> 6.00"]
